growth values, listed per item
Test system: SK-OV-3 ovarian
Experiment: NCI-60 one-dose screen, 48 h (100 = growth as untreated, 0 = no growth, -100 = all killed)
Conditions: 10 µM unless noted
This is part of a sample that, as a whole, favours compounds with a hit. Of some 83,000 tested, about 20% had one in any assay. Calls of active or inactive are those of the source. The calls were made as follows: active = growth percent below 10; inactive = the rest.

In one line, give reported growth of the entry Cc1ccc(C(=O)Nc2ccc(CN3CCN(C)CC3)c(C(F)(F)F)c2)cc1C#Cc1cnc(N)cc1C#N .
-7.98% (active)

====

System: NCI/ADR-RES ovarian
Experiment: NCI-60 one-dose screen, 48 h
Conditions: 10 µM unless noted
Experimental: Growth inhibition of the NCI/ADR-RES human […] tumor cell line is measured as a screen for anti-cancer activity. Cells are grown in 96 well plates and exposed to the test compound for 48 hours. Compounds are tested at a single concentration, which is 10^-5 M for most compounds. The reported endpoint is percent growth (GI% or GIPRCNT), where numbers from 0 - 100% represent growth inhibition, and numbers from -100% - 0 represent cell death. For example, a value of 40 represents 60% growth inhibition. […]
Compounds without any hit were thinned out: in the full panel of roughly 83,000, 20% have a hit. Calls of active or inactive are those of the source. Rule for the calls: active = growth percent below 10; inactive = the rest.
Reply using exactly one outcome from active, inactive

Study these solved cases before continuing.
molecule | label.class
C[C@@H]1CC[C@@H]2[C@@H]1[C@H](OC(=O)/C=C/c1ccccc1)[C@]1(c3ccccc3)C[C@@H](NC(=O)CO)[C@@]2(C)O1 | inactive
CC[C@@H]1NC(=O)[C@H]([C@H](O)[C@H](C)C/C=C/c2ccc(CN3C(=O)C(C)=C(C)C3=O)cc2)N(C)C(=O)[C@H](C(C)C)N(C)C(=O)[C@H](CC(C)C)N(C)C(=O)[C@H](CC(C)C)N(C)C(=O)[C@@H](C)NC(=O)[C@H](C)NC(=O)[C@H](CC(C)C)N(C)C(=O)[C@H](C(C)C)NC(=O)[C@H](CC(C)C)N(C)C(=O)CN(C)C1=O | inactive
COC(=O)c1nc(-c2ccccc2)oc1S(=O)(=O)N(C)CCO | inactive

# fetch the recorded call for CCOC(=O)CCCn1c(-c2ccccc2)cc(-c2ccccc2)c(C#N)c1=O here
inactive

# fetch the recorded call for CN1CCN(Cc2ccc(NC(=O)c3cccc(C#Cc4c(N)ncc5ccc(F)cc45)c3)cc2C(F)(F)F)CC1 here
active

====

System: SK-OV-3 ovarian
Assay: NCI-60 one-dose screen, 48 h (100 = growth as untreated, 0 = no growth, -100 = all killed)
Conditions: 10 µM unless noted
About 83,000 compounds went through this panel and 20% of them were active in at least one assay; those are over-represented in the sample as a whole.
metric.name: growth (%)
Use % as the unit, but write only the number.

molecule | tested.on | result.unit | growth
COc1cc(-c2[nH]ncc2Nc2ccc(Cl)cc2)cc(OC)c1OC | SK-OV-3 ovarian | % | 64.3
O=C1/C(=C/c2cn(-c3ccccc3)nc2-c2ccccc2)SC(=S)N1c1ccccc1 | SK-OV-3 ovarian | % | 111

In one line, give reported growth of the entry COc1ccc2c(c1)c(C(=O)c1nc(-c3cn(C)c4ccccc34)no1)cn2C .
84.5

====

Test system: NCI/ADR-RES ovarian
Assay: NCI-60 one-dose screen, 48 h
Conditions: 10 µM unless noted
The panel holds about 83,000 compounds, 20% with a hit somewhere; the sample as a whole holds those more often. Active and inactive are the calls of the source. The calls were made as follows: active = growth percent below 10; inactive = the rest.
Reply using exactly one outcome from active, inactive

Study these solved cases before continuing.
molecule | label.class
CC/C(=C(/c1ccc(Cl)cc1)c1ccc(OCCN2CCOCC2)cc1)c1ccccc1 | inactive
COc1ccc(NC(=O)Nc2ccccc2CNc2nc(Nc3ccc(OCCN4CCCC4)cc3)ncc2Cl)cc1 | active
Clc1ccc(Nc2nc(Nc3ccc(Cl)cc3)nc(Nc3ccc(-c4cc(-c5cccc(Cl)c5)on4)cc3)n2)cc1 | inactive
Cc1cc2nc(C(Cl)Cl)nc(-c3ccc(Cl)cc3)n2n1 | active
C#CCOc1cccc(Nc2ncc3ncn(C4CCN(C(=O)CCl)C4)c3n2)c1 (stereo not given) | inactive
COc1cc2ncnc(Nc3ccc(F)c(Cl)c3)c2cc1OCC(=O)N1CCCCC1 | inactive
CCCCC1=C(Br)C(=O)c2nc(C)ccc2C1=O | inactive
O=C(Nc1ccc(F)cc1)c1cc2cc(Nc3nc(-c4ccccc4)nc4ccccc34)ccc2oc1=O | inactive

# fetch the recorded call for CN1Cn2c(ccc2C(F)(F)F)C(=O)CS1(=O)=O here
inactive

# fetch the recorded call for CCN(CC)CC#CCOC(=O)[C@]1(C)CCC[C@]2(C)c3ccc(C(C)C)cc3CC[C@@H]12 here
inactive

====

Tested on: NCI-H322M lung
Assay: NCI-60 one-dose screen, 48 h
Conditions: 10 µM unless noted
About 83,000 compounds went through this panel and 20% of them were active in at least one assay; those are over-represented in the sample as a whole. The source made the active and inactive calls. Rule for the calls: active = growth percent below 10; inactive = the rest.
Reply using exactly one outcome from 1 = active, -1 = inactive

Study these solved cases before continuing.
compound | label.class
O=C(CCl)n1nnnc1Cc1ccccc1 | -1
C[C@@H]1O[C@@H](O[C@H]2[C@@H](OC(=O)[C@]34CCC(C)(C)C[C@H]3C3=CC[C@@H]5[C@@]6(C)C[C@H](O)[C@H](O[C@@H]7O[C@H](CO)[C@@H](O)[C@H](O)[C@H]7O)[C@@](C)(CO)[C@@H]6CC[C@@]5(C)[C@]3(C)C[C@H]4O)OC[C@@H](O)[C@@H]2O)[C@H](O)[C@H](O[C@@H]2OC[C@@H](O)[C@H](O[C@@H]3OC[C@](O)(CO)[C@H]3O[C@@H]3OC[C@@H](O)[C@H](O)[C@H]3O)[C@H]2O)[C@H]1O[C@@H]1OC[C@](O)(CO)[C@H]1O | -1

Attention now shifts to the item below.
# fetch the recorded call for CC/C(=C(/c1ccc(O)cc1)c1ccc(OCCN2CCCCCC2)cc1)c1ccc(Cl)cc1 here
-1

====

Test system: MDA-MB-231 breast
Experiment: NCI-60 one-dose screen, 48 h (100 = growth as untreated, 0 = no growth, -100 = all killed)
Conditions: 10 µM unless noted
Compounds without any hit were thinned out: in the full panel of roughly 83,000, 20% have a hit.
metric.name: growth (%)
Use % as the unit, but write only the number.

Answered cases to consult:
compound | tested.on | growth [%]
CC(=O)c1nn(-c2ccccc2)/c(=N/N=Cc2cn(-c3ccccc3)nc2-c2cc3ccccc3oc2=O)s1 | MDA-MB-231 breast | 82.6
COc1cc(/C=C2\CCC/C(=C\c3cc(CN4CCCC4)c(O)c(OC)c3)C2=O)cc(CN2CCCC2)c1O | MDA-MB-231 breast | 12.5
O=S(=O)(O)c1ccc(N=Nc2ccc(N=Nc3cccc4ccccc34)c(S(=O)(=O)O)c2)cc1 | MDA-MB-231 breast | 80.3

In one line, give reported growth of the entry Cc1ccc(/C=C/c2c(C(=O)/C=C/c3ccccc3)c(C)nc3ccccc23)cc1 .
30.8

In one line, give reported growth of the entry C=C(CN1CC=CCC1)[C@@H]1CC[C@]2(COC(C)=O)CC[C@]3(C)[C@H](CC[C@@H]4[C@@]5(C)CC[C@H](O)C(C)(C)[C@@H]5CC[C@]43C)[C@@H]12 .
112

In one line, give reported growth of the entry CCOC(=O)C1=C(C)N=C2SC=C(c3ccc(F)cc3)N2[C@H]1c1cn(-c2ccccc2)nc1-c1ccc(Cl)cc1 .
88.5

In one line, give reported growth of the entry COC(=O)c1[nH]nc(OC)c1C1(C(C#N)c2nc3ccccc3s2)CCCc2ccccc21 (configuration not stated) .
79.9

In one line, give reported growth of the entry CC(=O)N1N=C(c2ccc(Nc3nc(Nc4ccc(F)cc4)nc(Nc4ccc(F)cc4)n3)cc2)CC1c1ccccc1 (configuration not stated) .
80.1

====

growth values, listed per item
Test system: NCI-H322M lung
Experiment: NCI-60 one-dose screen, 48 h (100 = growth as untreated, 0 = no growth, -100 = all killed)
Details: 10 µM unless noted
Compounds without any hit were thinned out: in the full panel of roughly 83,000, 20% have a hit.
Use % as the unit, but write only the number.

Answered cases to consult:
compound | metric.name | reading
Cc1ccc(/C=C2\COc3ccc(O)c(O)c3C2=O)cc1 | growth | 31.3
O=[N+]([O-])c1ccc2[nH]c3nccc(NCc4cccc(Cl)c4)c3c2c1 | growth | 77.8

In one line, give reported growth of the entry CN1CCN(C(=O)OCc2nc3c(N4CCOCC4)nc(Cl)nc3n2C)CC1 .
53.7

In one line, give reported growth of the entry O=C(CCCOc1ccc(Br)cc1)Nc1ncc(Cc2ccc(F)cc2)s1 .
78.5

In one line, give reported growth of the entry CCc1c2c(nc3ccc(OCc4ccc(B5OC(C)(C)C(C)(C)O5)cc4)cc13)-c1cc3c(c(=O)n1C2)COC(=O)[C@]3(O)CC .
6.44

In one line, give reported growth of the entry CCOC(=O)c1ccc(Nc2ncnc3c2cnn3-c2cccc(F)c2)cc1 .
102

In one line, give reported growth of the entry O=c1ccc2nc(-c3ccccn3)nn(-c3ccccc3)c-2c1 .
102

In one line, give reported growth of the entry CC1(C)C(N)=Nc2cc(OCCCN3Cc4ccc(OCCc5cn(CC(=O)N6CCC(CCN7CCCC7)CC6)nn5)cc4C3)c(OCC3CC3)cc21 .
102

In one line, give reported growth of the entry COc1cc2cc(NCc3ccncc3)nc(C)c2cc1OC .
103

In one line, give reported growth of the entry O=C1OCC2=C1C(c1cccc(C(F)(F)F)c1)c1cc3c(cc1N2CCO)CCC3 (stereo not given) .
45

In one line, give reported growth of the entry O=C(NCc1ccc(Cn2c(=O)sn(-c3ccc(Cl)cc3)c2=O)cc1)OCc1ccc2c(Cl)cc(Cl)c(O)c2n1 .
45.7

In one line, give reported growth of the entry COc1cc(/C=C(/c2ccccc2)[N+](=O)[O-])c(OC)c2c1OCO2 .
3.33

In one line, give reported growth of the entry CCOc1ccc(C(=O)Cc2ccccc2)cc1 .
114

In one line, give reported growth of the entry CCN(CC)CC#CCOC(=O)[C@]1(C)CCC[C@]2(C)c3ccc(C(C)C)cc3CC[C@@H]12 .
93.7

In one line, give reported growth of the entry C=CCNC(=O)Cc1c(-c2ccc(OC)cc2)oc2c(OC)c3c(c(OC)c12)OCO3 .
97.9

In one line, give reported growth of the entry C=C1CCC2C3(C)COC(c4ccc(NC(C)=O)cc4)OC3CCC2(C)C1C/C=C1/C(=O)OCC1O (stereo not given) .
89

In one line, give reported growth of the entry CNC(=O)c1cc(Oc2ccc3nc(NC(=O)Nc4ccc(C(F)(F)F)cc4)sc3c2)ccn1 .
80.5

In one line, give reported growth of the entry N=C(N)SCc1c2ccccc2c(CSC(=N)N)c2ccccc12 .
103

In one line, give reported growth of the entry C#Cc1cc(C(=O)Nc2ccc(CN3CCN(C)CC3)c(C(F)(F)F)c2)ccc1C .
88.5

In one line, give reported growth of the entry COc1ccc(-c2nnc3n(C)c(=O)c4ccccc4n23)cc1O .
44.6
